Every entry's value here was drawn from patent US12091409B2.

# Tested on: NQO1 specific enzyme activity in BEAS-2B cells (marker for NRF2 activation)
# experiment-summary: BEAS-2B NQO1 MTT Assay
# Format: cell-based
# test-settings: Homo sapiens, BEAS-2B, 48 h, NQO1 specific activity induction, 48 hours with compound
pEC50: −log10 of the molar value.
quantity-measured: pEC50

Example cases with answers are listed next.
CC[C@@H]1CN(Cc2cc(C(OCc3cn(Cc4cccc(-c5ccc(C(=O)O)c(F)c5)c4)nn3)C(C)(C)C(=O)O)ccc2C)S(=O)(=O)c2ccccc2O1 (stereo partly shown) [Example 24]
7.00 to 8.00
Cc1ccc(C(OCc2cn(CC3CCN(C(=O)C4CCCCC4)CC3)nn2)C(C)(C)C(=O)O)cc1CN1C[C@@H](C)Oc2ccccc2S1(=O)=O (stereo partly shown) [Example 30]
8.00 to 9.00
CCn1cc(COC(c2ccc(C)c(CN(C3CCCCC3)S(=O)(=O)c3ccccc3)c2)C(C)(C)C(=O)O)nn1 (stereo not shown) [Example 98]
7.00 to 8.00
CCCn1cc(COC(c2ccc(C)c(CN3C[C@@H](C)Oc4ccccc4S3(=O)=O)c2)C(C)(C)C(=O)O)nn1 (stereo partly shown) [Example 8]
8.00 to 9.00
CC[C@@H]1Cc2ccccc2S(=O)(=O)N(Cc2cc([C@@H](OCc3cn(CC)nn3)C(C)(C)C(=O)O)ccc2C)C1 [Example 77]
8.00 to 9.00

List reported pEC50 for each of these compounds:
1. CCn1cc(COC(c2ccc(C)c(CN(Cc3ccccc3)S(=O)(=O)c3cccc(C(=O)O)c3)c2)C(C)(C)C(=O)O)nn1 (stereo not shown) [Example 95]
2. Cc1ccc(C(OCc2cn(Cc3cccc(Cn4cc(C(C)C)nn4)c3)nn2)C(C)(C)C(=O)O)cc1CN1C[C@@H](C)Oc2ccccc2S1(=O)=O (stereo partly shown) [Example 37]
3. CC[C@@H]1CN(Cc2cc(C(OCc3cn(Cc4cccc(-c5ccc(C(=O)O)cc5)c4)nn3)C(C)(C)C(=O)O)ccc2C)S(=O)(=O)c2ccccc2O1 (stereo partly shown) [Example 22]
4. CCC(=O)N1CCC(Cn2cc(COC(c3ccc(C)c(CN4C[C@@H](C)Oc5ccccc5S4(=O)=O)c3)C(C)(C)C(=O)O)nn2)CC1 (stereo partly shown) [Example 33]
5. CCCn1cc(COC(c2ccc(C)c(CN3C[C@@H](CC)Oc4ccccc4S3(=O)=O)c2)C(C)(C)C(=O)O)nn1 (stereo partly shown) [Example 4]
6. Cc1ccc([C@@H](OCc2cn(CCOCCN=[N+]=[N-])nn2)C(C)(C)C(=O)O)cc1CN1C[C@@H](C)Oc2ccccc2S1(=O)=O (single isomer, unassigned) [Example 15]
7. CCn1cc(CO[C@H](c2ccc(C)c(CN3C[C@H](C)Cc4ccccc4S3(=O)=O)c2)C(C)(C)C(=O)O)nn1 [Example 70]
8. CC[C@@H]1CN(Cc2cc([C@@H](OCc3cn(CC)nn3)C(C)(C)C(=O)O)ccc2C)S(=O)(=O)c2ccccc2O1 [Example 5]

Reply:
6.00 to 7.00
8.00 to 9.00
8.00 to 9.00
7.00 to 8.00
> 9.00
7.00 to 8.00
7.00 to 8.00
> 9.00
